Assignment: determine reported 1 micro no FAD (array fluorescence of bound diaphorase) for the given sequences.
Tested on: diaphorase
Experiment: fluorescently labeled diaphorase binding to peptide array with or without excess FAD
Details: 1 micromolar labeled diaphorase, no FAD; 65535 is detector saturation

What the record says about EDEGLSKFEGGSG [array peptide with C-terminal GSG linker] : 1 micro no FAD (array fluorescence of bound diaphorase) is 560.55

What the record says about AQVAVDGFYVDGSG [array peptide with C-terminal GSG linker] : 1 micro no FAD (array fluorescence of bound diaphorase) is 2012.5

What the record says about YRFPNAQSPGGSG [array peptide with C-terminal GSG linker] : 1 micro no FAD (array fluorescence of bound diaphorase) is 6240

What the record says about KEAPGPRFGGSG [array peptide with C-terminal GSG linker] : 1 micro no FAD (array fluorescence of bound diaphorase) is 1071.25

What the record says about RWQYYNQKFGSG [array peptide with C-terminal GSG linker] : 1 micro no FAD (array fluorescence of bound diaphorase) is 15697.5
